meta.source: patent US7842469B2

Some molecules, each annotated with its measured Activity (relative to RLuc) bc.
Test Summary: Luciferase activity of purified RLuc mutants (light output integrated over 10 s, luminometer)
Format: biochemical
Particulars: benzyl-coelenterazine; relative to native enzyme

Sample records with Activity (relative to RLuc) bc:
C124A/F199M: RLuc mutant C124A/F199M (protein) MASKVYDPEQRKRMITGPQWWARCKQMNVLDSFINYYDSEKHAENAVIFLHGNAASSYLWRHVVPHIEPVARCIIPDLIGMGKSGKSGNGSYRLLDHYKYLTAWFELLNLPKKIIFVGHDWGAALAFHYSYEHQDKIKAIVHAESVVDVIESWDEWPDIEEDIALIKSEEGEKMVLENNFFVETMLPSKIMRKLEPEEMAAYLEPFKEKGEVRRPTLSWPREIPLVKGGKPDVVQIVRNYNAYLRASDDLPKMFIESDPGFFSNAIVEGAKKFPNTEFVKVKGLHFSQEDAPDEMGKYIKSFVERVLKNEQ: 0.44
C124A/L203R: RLuc mutant C124A/L203R (protein) MASKVYDPEQRKRMITGPQWWARCKQMNVLDSFINYYDSEKHAENAVIFLHGNAASSYLWRHVVPHIEPVARCIIPDLIGMGKSGKSGNGSYRLLDHYKYLTAWFELLNLPKKIIFVGHDWGAALAFHYSYEHQDKIKAIVHAESVVDVIESWDEWPDIEEDIALIKSEEGEKMVLENNFFVETMLPSKIMRKLEPEEFAAYREPFKEKGEVRRPTLSWPREIPLVKGGKPDVVQIVRNYNAYLRASDDLPKMFIESDPGFFSNAIVEGAKKFPNTEFVKVKGLHFSQEDAPDEMGKYIKSFVERVLKNEQ: 0.55
A54P/A55T/C124A: RLuc mutant A54P/A55T/C124A (protein) MASKVYDPEQRKRMITGPQWWARCKQMNVLDSFINYYDSEKHAENAVIFLHGNPTSSYLWRHVVPHIEPVARCIIPDLIGMGKSGKSGNGSYRLLDHYKYLTAWFELLNLPKKIIFVGHDWGAALAFHYSYEHQDKIKAIVHAESVVDVIESWDEWPDIEEDIALIKSEEGEKMVLENNFFVETMLPSKIMRKLEPEEFAAYLEPFKEKGEVRRPTLSWPREIPLVKGGKPDVVQIVRNYNAYLRASDDLPKMFIESDPGFFSNAIVEGAKKFPNTEFVKVKGLHFSQEDAPDEMGKYIKSFVERVLKNEQ: 0.15

Next, consider the following molecule.
Using the record for C124A/S287L: RLuc mutant C124A/S287L (protein) MASKVYDPEQRKRMITGPQWWARCKQMNVLDSFINYYDSEKHAENAVIFLHGNAASSYLWRHVVPHIEPVARCIIPDLIGMGKSGKSGNGSYRLLDHYKYLTAWFELLNLPKKIIFVGHDWGAALAFHYSYEHQDKIKAIVHAESVVDVIESWDEWPDIEEDIALIKSEEGEKMVLENNFFVETMLPSKIMRKLEPEEFAAYLEPFKEKGEVRRPTLSWPREIPLVKGGKPDVVQIVRNYNAYLRASDDLPKMFIESDPGFFSNAIVEGAKKFPNTEFVKVKGLHFLQEDAPDEMGKYIKSFVERVLKNEQ , state its measured Activity (relative to RLuc) bc. 2.8
